Examples of compounds with documented melting point follow.

// below: answered compounds
{"COMPOUND": "CCNc1nc(-c2ccc(NC(=O)NCc3cccnc3)cc2)ccc1C(=O)NCCN(C(C)C)C(C)C [Compound 8]", "melting point": "160 to 162 °C"}
{"COMPOUND": "CCNc1nc(-c2ccc(NC(=O)OCc3cccnc3)cc2)ccc1C(=O)NC [Compound 29]", "melting point": "234 to 235 °C"}

Problem: Given CNC(=O)c1ccc(-c2ccc(NC(=O)NCc3cccnc3)cc2)nc1Nc1ccccc1 [Compound 22] , state its recorded melting point.
Solution: 234 to 236 °C

Problem: Given CNC(=O)c1ccc(-c2ccc(NC(=O)NCc3cccnc3)cc2)nc1N [Compound 3] , state its recorded melting point.
Solution: 234 to 236 °C

---

Tested on: HCT116 (ATCC-CCL247)
Assay: MTS cell proliferation and viability test on HCT116 tumour line
Format: cell-based
Conditions: Homo sapiens, HCT-116, incubating the test compound for 72 hours, read-out: IC50 HCT116 (concentration which results in 50% loss of cell proliferation and viability)
MEASUREMENT_TYPE: IC50 (nM)

{"COMPOUND_STRUCTURE_STRING": "CNC(=O)c1ccc(-c2ccc(NC(=O)NCc3cccnc3)cc2)nc1NCCN1CCCCC1", "EXPERIMENTAL_SYSTEM": "HCT116 (ATCC-CCL247)", "UOM": "nM", "IC50": 294}

a = CCNc1nc(-c2ccc(NC(=O)NCc3cccnc3)cc2)ccc1C(=O)NCCN1CCNCC1
b = CNC(=O)c1ccc(-c2ccc(NC(=O)NCc3cccnc3)cc2)nc1NCCOC
Problem: Could you check which of a and b has a smaller value for IC50? Kindly give the label for the entry you pick.
Solution: a

---

MEASUREMENT_TYPE: melting point

// below: answered compounds
{"COMPOUND_STRUCTURE_STRING": "CCNc1nc(-c2ccc(NC(=O)NCc3cccnc3)cc2)ccc1C(=O)NC", "RESULT": "260 to 263 °C"}
{"COMPOUND_STRUCTURE_STRING": "CCNc1nc(-c2ccc(NC(=O)NCc3cccnc3)cc2)ccc1C(=O)NCCN1CCCCC1", "RESULT": "164 to 165 °C"}
{"COMPOUND_STRUCTURE_STRING": "CNC(=O)c1ccc(-c2ccc(NC(=O)NCc3cccnc3)cc2)nc1NCc1ccncc1", "RESULT": "218 to 219 °C"}

Read the next record carefully.
Problem: Given `CCNc1nc(-c2ccc(NC(=O)NCc3ccc(N)nc3)cc2)ccc1C(=O)NC` , state its recorded melting point.
Solution: 223 to 226 °C

---

System: PC3 (ATCC-CRL1435)
Experiment: MTS cell proliferation and viability test on PC3 tumour line
Format: cell-based
Conditions: incubating the test compound for 72 hours, read-out: IC50 PC3 (concentration which results in 50% loss of cell proliferation and viability)
MEASUREMENT_TYPE: IC50 (nM)

// below: answered molecules
{"COMPOUND_STRUCTURE_STRING": "CNC(=O)c1ccc(-c2ccc(NC(=O)NCc3cccnc3)cc2)nc1NCCN1CCCCC1", "EXPERIMENTAL_SYSTEM": "PC3 (ATCC-CRL1435)", "UOM": "nM", "IC50": 266}
{"COMPOUND_STRUCTURE_STRING": "CCNc1nc(-c2ccc(NC(=O)/C=C/c3cccnc3)cc2)ccc1C(=O)NCCN(C(C)C)C(C)C", "EXPERIMENTAL_SYSTEM": "PC3 (ATCC-CRL1435)", "UOM": "nM", "IC50": 21}
{"COMPOUND_STRUCTURE_STRING": "CCNc1nc(-c2ccc(NC(=O)NCc3ccc(NC(=O)C(C)C)nc3)cc2)ccc1C(=O)NCCN1CCCCC1", "EXPERIMENTAL_SYSTEM": "PC3 (ATCC-CRL1435)", "UOM": "nM", "IC50": 105}

P = CNC(=O)c1ccc(-c2ccc(NC(=O)NCc3cccnc3)cc2)nc1Nc1ccccc1
Q = CCNc1cc(-c2ccc(NC(=O)NCc3cccnc3)cc2)ncc1C(=O)NC
Problem: Response body: label of entry with the larger IC50; valid values P , Q . Kindly give the label for the entry you pick.
Solution: Q

---

Test system: HCT116 (ATCC-CCL247)
Assay: MTS cell proliferation and viability test on HCT116 tumour line
Assay type: cell-based
Conditions: Homo sapiens, HCT-116, incubating the test compound for 72 hours, read-out: IC50 HCT116 (concentration which results in 50% loss of cell proliferation and viability)
MEASUREMENT_TYPE: IC50 (nM)

{"COMPOUND_STRUCTURE_STRING": "CCNc1nc(-c2ccc(NC(=O)NCc3ccc(NC(C)C)nc3)cc2)ccc1C(=O)NCCN1CCCCC1", "UOM": "nM", "NUMBER": 271}
{"COMPOUND_STRUCTURE_STRING": "CCNc1nc(-c2ccc(NC(=O)NCc3ccc(NC(=O)C(C)C)nc3)cc2)ccc1C(=O)NCCN1CCCCC1", "UOM": "nM", "NUMBER": 221}
{"COMPOUND_STRUCTURE_STRING": "O=C(NCc1cccnc1)Nc1ccc(-c2ccc(C(=O)NCCN3CCCC3)c(Nc3ccccc3)n2)cc1", "UOM": "nM", "NUMBER": 0.37}

a = CNC(=O)c1ccc(-c2ccc(NC(=O)NCc3cccnc3)cc2)nc1NCc1ccccc1
b = CNC(=O)c1ccc(-c2ccc(NC(=O)NCc3cccnc3)cc2)nc1Nc1ccccc1
Problem: Could you check which of a and b has a smaller value for IC50? Kindly give the label for the entry you pick.
Solution: b

1 = CCNc1cc(-c2ccc(NC(=O)NCc3cccnc3)cc2)ncc1C(=O)NC
2 = CCNc1nc(-c2ccc(NC(=O)NCc3ccc(N)nc3)cc2)ccc1C(=O)NCCN1CC[S+]([O-])CC1
3 = CCNc1nc(-c2ccc(NC(=O)NCc3cccnc3)cc2)ncc1C(=O)NC
4 = CCNc1nc(-c2ccc(NC(=O)NCc3cccnc3)cc2)ccc1C(=O)NCCO
5 = CNC(=O)c1ccc(-c2ccc(NC(=O)NCc3cccnc3)cc2)nc1NCc1cccnc1
Problem: Put the molecules in ascending order of IC50. Put the labels in the requested order and write them down.
Solution: 2, 4, 3, 5, 1
(2: 1.8 nM, 4: 6.3 nM, 3: 11 nM, 5: 19 nM, 1: 35 nM)

---

Tested on: PC3 (ATCC-CRL1435)
Experiment: MTS cell proliferation and viability test on PC3 tumour line
Format: cell-based
Conditions: incubating the test compound for 72 hours, read-out: IC50 PC3 (concentration which results in 50% loss of cell proliferation and viability)
MEASUREMENT_TYPE: IC50 (nM)

// below: answered compounds
{"COMPOUND": "CCNc1nc(-c2ccc(NC(=O)NCc3cccnc3)cc2)ccc1C(=O)NCCN1CCCCC1 [Compound 13]", "NUMBER": 0.2}
{"COMPOUND": "CCN(CC)c1nc(-c2ccc(NC(=O)NCc3cccnc3)cc2)ccc1C(=O)NC [Compound 25]", "NUMBER": 1.7}
{"COMPOUND": "CNC(=O)c1ccc(-c2ccc(NC(=O)NCc3cccnc3)cc2)nc1N1CCCC1 [Compound 49]", "NUMBER": 316}

1 = CCNc1cc(-c2ccc(NC(=O)NCc3cccnc3)cc2)ccc1C(=O)NC [Compound 62]
2 = CCNc1nc(-c2ccc(NC(=O)NCc3cccnc3)cc2)ccc1C(=O)NCCO [Compound 26]
Problem: Response body: label of entry with the larger IC50; valid values 1 , 2 . Kindly give the label for the entry you pick.
Solution: 2

a = CCNc1nc(-c2ccc(NC(=O)NCc3ccc(N)nc3)cc2)ccc1C(=O)NCCN1C[C@@H](C)O[C@@H](C)C1 [Compound 114]
b = CNC(=O)c1ccc(-c2ccc(NC(=O)NCc3cccnc3)cc2)nc1NCCOC [Compound 51]
Problem: Could you check which of a and b has a smaller value for IC50? Kindly give the label for the entry you pick.
Solution: a

1 = CCNc1nc(-c2ccc(NC(=O)NCc3ccc(N)nc3)cc2)ccc1C(=O)NCCN1CCCCC1 [Compound 81]
2 = CCNc1nc(-c2ccc(NC(=O)NCc3ccc(N)nc3)cc2)ccc1C(=O)NCCN1CC[S+]([O-])CC1 [Compound 103]
Problem: Response body: label of entry with the larger IC50; valid values 1 , 2 . Kindly give the label for the entry you pick.
Solution: 2
(2: 3 nM, 1: 0.1 nM)

---

System: HCT116 (ATCC-CCL247)
Test: MTS cell proliferation and viability test on HCT116 tumour line
Format: cell-based
Details: Homo sapiens, HCT-116, incubating the test compound for 72 hours, read-out: IC50 HCT116 (concentration which results in 50% loss of cell proliferation and viability)
MEASUREMENT_TYPE: IC50 (nM)

{"COMPOUND": "CCNc1nc(-c2ccc(NC(=O)NCc3ccc(N)nc3)cc2)ccc1C(=O)NCCN1C[C@@H](C)O[C@@H](C)C1 [Compound 114]", "NUMBER": 0.1}
{"COMPOUND": "CCNc1nc(-c2ccc(NC(=O)NCc3ccc(N)nc3)cc2)ccc1C(=O)NCCN1CCCCC1 [Compound 81]", "NUMBER": 0.1}
{"COMPOUND": "CCNc1nc(-c2ccc(NC(=O)NCc3cccnc3)cc2)ccc1C(=O)NCCN1CCCCC1 [Compound 13]", "NUMBER": 0.1}
{"COMPOUND": "CCN(CC)c1nc(-c2ccc(NC(=O)NCc3cccnc3)cc2)ccc1C(=O)NC [Compound 25]", "NUMBER": 2.2}
{"COMPOUND": "CNC(=O)c1ccc(-c2ccc(NC(=O)NCc3cccnc3)cc2)nc1N1CCCC1 [Compound 49]", "NUMBER": 331}

P = CCNc1cc(-c2ccc(NC(=O)NCc3cccnc3)cc2)ccc1C(=O)NC [Compound 62]
Q = CCNc1nc(-c2ccc(NC(=O)/C=C/c3cccnc3)cc2)ccc1C(=O)NCCN(C(C)C)C(C)C [Compound 74]
Problem: Response body: label of entry with the larger IC50; valid values P , Q . Kindly give the label for the entry you pick.
Solution: Q
(Q: 116 nM, P: 2.5 nM)
